testedOn: HTRA1, Q92743
Sequence (Q92743 360-477): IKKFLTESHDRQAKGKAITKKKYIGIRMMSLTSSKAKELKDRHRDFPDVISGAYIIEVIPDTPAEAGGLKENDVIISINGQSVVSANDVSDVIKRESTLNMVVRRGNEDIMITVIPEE
assayText: holdup assay
Parameters: key: below the threshold = too weak to quantify, mostly under pKd 3.1 to 4
experimentalSetup: plain residues with an end cap or a label only (N-terminal biotin on a linker: ado-ado)

{"binder": "AKADAQESRL [PLCB2, Q00722]", "pKd": "below the threshold"}
{"binder": "KAEEKPPSKV [SCN4B, Q8IWT1]", "pKd": "below the threshold"}
{"binder": "QKASRNESTF [POLR1D, P0DPB6]", "pKd": "below the threshold"}

Origin of the recorded values: paper PMC9482650
